Parameter % displacement (hIL-23R NIuc): see the listing below.
Target: human IL-23R (Homo sapiens, UniProt Q5VWK5)
Sequence (Q5VWK5 22-629): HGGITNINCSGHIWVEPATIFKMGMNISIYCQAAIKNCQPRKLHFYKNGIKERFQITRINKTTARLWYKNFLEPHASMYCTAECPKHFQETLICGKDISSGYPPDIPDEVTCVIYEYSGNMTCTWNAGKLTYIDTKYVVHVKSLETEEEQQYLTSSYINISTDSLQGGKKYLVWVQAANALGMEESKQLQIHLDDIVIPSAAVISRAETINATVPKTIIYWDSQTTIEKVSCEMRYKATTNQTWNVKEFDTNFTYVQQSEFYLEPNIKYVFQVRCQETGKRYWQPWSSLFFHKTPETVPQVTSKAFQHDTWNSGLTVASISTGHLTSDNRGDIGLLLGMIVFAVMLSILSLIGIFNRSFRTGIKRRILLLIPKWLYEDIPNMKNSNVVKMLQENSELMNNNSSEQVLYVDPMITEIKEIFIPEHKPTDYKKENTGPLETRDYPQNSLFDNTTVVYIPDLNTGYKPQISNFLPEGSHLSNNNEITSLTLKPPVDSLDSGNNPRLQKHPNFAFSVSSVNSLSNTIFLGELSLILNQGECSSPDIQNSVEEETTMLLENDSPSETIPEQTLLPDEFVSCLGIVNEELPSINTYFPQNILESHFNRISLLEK
Assay: biochemical
*1 amine or outer side, *2 acyl side, *3 side chain or, on linkers, in order; H or OH if unused. Where a SMILES comes first, the peptide text is derived from it. Bridges are numbered along the chain shown (N, C = ends). [ ]: non-standard residue; d: D form. The star is where a group is joined. NH(4-(3-pyridyl)butyl) = c1cncc(CCCCN*)c1; 2Nal = N[C@@H](Cc1ccc2ccccc2c1)C(=O)O; AEF = NCCOc1ccc(C[C@H](N)C(=O)O)cc1; X1 = O=C(Cc1ccc(CN[*:1])cc1)[*:2]; 3Pal = N[C@@H](Cc1cccnc1)C(=O)O; Aad = N[C@@H](CCCC(=O)O)C(=O)O; αMeL = CC(C)C[C@](C)(N)C(=O)O; CH2COCH2 = O=C(C[*:1])C[*:2]; dOrn = NCCC[C@@H](N)C(=O)O; 3Amb = NCc1cccc(C(=O)O)c1; Dab = NCC[C@H](N)C(=O)O
Your answer should be a plain number; it is taken to be in %.

>  <compound>
CC[C@H](C)[C@@H]1NC(=O)[C@@H]2CCCCNC(=O)CC[C@@H](C(=O)N[C@@H](Cc3cn(C)cn3)C(=O)N[C@@H](Cc3cccnc3)C(=O)NC)NC(=O)[C@](C)(CC(C)C)NC(=O)[C@H](Cc3ccc4ccccc4c3)NC(=O)[C@H](Cc3ccc(OCCN)cc3)NC(=O)[C@H](CCC(=O)N2)NC(=O)[C@H](CCC(N)=O)NC(=O)[C@H](Cc2c[nH]c3ccccc23)NC(=O)[C@H](C(C)C)NC1=O [Compound 73]

>  <unit-text>
%

>  <recorded-number>
102

$$$$
>  <compound>
CC[C@H](C)[C@@H]1NC(=O)[C@@H]2CCCCNC(=O)CC[C@@H](C(=O)N[C@@H](CCN)C(=O)N[C@@H](Cc3cccnc3)C(=O)NC)NC(=O)[C@](C)(CC(C)C)NC(=O)[C@H](Cc3ccc4ccccc4c3)NC(=O)[C@H](Cc3ccc(OCCN)cc3)NC(=O)[C@H](CCC(=O)N2)NC(=O)[C@H](CCC(N)=O)NC(=O)[C@H](Cc2c[nH]c3ccccc23)NC(=O)[C@H](C(C)C)NC1=O [Compound 60]

>  <unit-text>
%

>  <recorded-number>
95

$$$$
>  <compound>
CC(C)[C@@H]1NC(=O)[C@H](CO)NC(=O)[C@@H]2CCCCNC(=O)CC[C@@H](C(=O)NCCCCc3cccnc3)NC(=O)CNC(=O)[C@H](Cc3ccc4ccccc4c3)NC(=O)[C@H](Cc3ccc(OCCN)cc3)NC(=O)[C@H](CCC(=O)N2)NC(=O)[C@H](CCC(N)=O)NC(=O)[C@H](Cc2c[nH]c3ccccc23)NC1=O [Compound 31] (KSVWQE[AEF][2Nal]GE-{NH(4-(3-pyridyl)butyl)}; lactam 1-10, N-6)

>  <unit-text>
%

>  <recorded-number>
98

$$$$
>  <compound>
CC(C)C[C@]1(C)NC(=O)[C@H](Cc2ccc3ccccc3c2)NC(=O)[C@H](Cc2ccc(OCCN)cc2)NC(=O)[C@@H]2CCC(=O)N[C@H](CCCNC(=O)CCC[C@@H](C(=O)N[C@@H](CCN)C(=O)N[C@@H](Cc3cccnc3)C(N)=O)NC1=O)C(=O)N[C@@H]([C@@H](C)O)C(=O)N[C@@H](C(C)C)C(=O)N[C@@H](Cc1c[nH]c3ccccc13)C(=O)N[C@@H](CCC(N)=O)C(=O)N2 [Compound 6] ([dOrn]TVWQE[AEF][2Nal][αMeL][Aad][Dab][3Pal]-NH2; lactam 1-10, N-6)

>  <unit-text>
%

>  <recorded-number>
104

$$$$

Name the recorded % displacement (hIL-23R NIuc) for CC(C)C[C@]1(C)NC(=O)[C@H](Cc2ccc3ccccc3c2)NC(=O)[C@H](Cc2ccc(OCCN)cc2)NC(=O)[C@@H]2CSCC(=O)CSC[C@H](NC(=O)[C@H](CO)NC(=O)c3cccc(c3)CNC(=O)CC[C@@H](C(=O)N[C@H](CCCNC(=N)N)C(N)=O)NC1=O)C(=O)N[C@@H](Cc1c[nH]c3ccccc13)C(=O)N[C@@H](CCC(N)=O)C(=O)N2 [Ref 41, reference compound] ([3Amb]SCWQC[AEF][2Nal][αMeL]E[dR]-NH2; linker 3-6 via CH2COCH2; lactam N-10) . 110

Request the reported % displacement (hIL-23R NIuc) associated with CC(C)C[C@]1(C)NC(=O)[C@H](Cc2ccc3ccccc3c2)NC(=O)[C@H](Cc2ccc(OCCN)cc2)NC(=O)[C@@H]2CSCC(=O)CSC[C@H](NC(=O)[C@H](CO)NC(=O)Cc3ccc(cc3)CNC(=O)CC[C@@H](C(=O)N[C@@H](CCCNC(=N)N)C(N)=O)NC1=O)C(=O)N[C@@H](Cc1c[nH]c3ccccc13)C(=O)N[C@@H](CCC(N)=O)C(=O)N2 [Ref 52, reference compound] ([X1]SCWQC[AEF][2Nal][αMeL]ER-NH2; linker 3-6 via CH2COCH2; lactam N-10) 100

Name the recorded % displacement (hIL-23R NIuc) for CC[C@H](C)[C@@H]1NC(=O)[C@@H]2CCCCNC(=O)CC[C@@H](C(=O)N3CCC[C@H]3C(=O)N[C@@H](Cc3cccnc3)C(=O)NC)NC(=O)[C@](C)(CC(C)C)NC(=O)[C@H](Cc3ccc4ccccc4c3)NC(=O)[C@H](Cc3ccc(OCCN)cc3)NC(=O)[C@H](CCC(=O)N2)NC(=O)[C@H](CCC(N)=O)NC(=O)[C@H](Cc2c[nH]c3ccccc23)NC(=O)[C@H](C(C)C)NC1=O [Compound 63] (KIVWQE[AEF][2Nal][αMeL]EP[3Pal]-NHMe; lactam 1-10, N-6) . 98

Requested read-out: % displacement (hIL-23R NIuc). Entry: CNC(=O)[C@H](Cc1cccnc1)NC(=O)[C@H](CCN)NC(=O)[C@@H]1CCC(=O)NCCCC[C@@H]2NC(=O)CC[C@H](NC(=O)[C@H](CCC(N)=O)NC(=O)[C@H](Cc3c[nH]c4ccccc34)NC(=O)CCCNC2=O)C(=O)N[C@@H](Cc2ccc(OCCN)cc2)C(=O)N[C@@H](Cc2ccc3ccccc3c2)C(=O)N[C@@](C)(CC(C)C)C(=O)N1 [Compound 98] 101

Please give the measured % displacement (hIL-23R NIuc) for this compound: CC[C@H](C)[C@@H]1NC(=O)[C@@H]2CCCCNC(=O)CC[C@@H](C(=O)NCCc3cccnc3)NC(=O)[C@](C)(C(C)C)NC(=O)[C@H](Cc3ccc4ccccc4c3)NC(=O)[C@H](Cc3ccc(OCCN)cc3)NC(=O)[C@@H](CCC(=O)N2)NC(=O)[C@H](CCC(N)=O)NC(=O)[C@H](Cc2c[nH]c3ccccc23)NC(=O)[C@H](C(C)C)NC1=O [Compound 27] 102

Returns the measured % displacement (hIL-23R NIuc) for the input compound. Input: CC[C@H](C)[C@@H]1NC(=O)[C@@H]2CCCCNC(=O)CC[C@@H](C(=O)NCC(=O)N[C@H](Cc3cccnc3)C(N)=O)NC(=O)[C@](C)(C(C)C)NC(=O)[C@H](Cc3ccc4ccccc4c3)NC(=O)[C@](C)(Cc3ccccc3)NC(=O)[C@H](CCC(=O)N2)NC(=O)[C@H](CCC(N)=O)NC(=O)[C@H](Cc2c[nH]c3ccccc23)NC(=O)[C@H](C(C)C)NC1=O [Compound 21] 101
